- target-desc: human MRP-14 (hS100A9) (Homo sapiens, UniProt P06702)
- Sequence (P06702 whole entry): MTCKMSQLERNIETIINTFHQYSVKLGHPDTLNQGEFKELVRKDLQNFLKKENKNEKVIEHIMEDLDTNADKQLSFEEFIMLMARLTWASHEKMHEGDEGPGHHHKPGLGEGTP
- procedure-details: ELISA-based binding affinity of MRP-14-targeted TMV, human protein
- run-conditions: read-out: KD (nM) human MRP-14, hS100A9 2 μg/mL coated, TMV 0-5 μg/mL, anti-TMV detection, single-site binding model, estimated
readout-name: Kd (nM)

>>> result("ACNSVHQHHCGGGS-N3 (disulfide) [TMV-MTP6]")
11.4
>>> result("ASSHIHHGGGS-C [TMV-MTP2]")
13.1
